Tested on: H1 or H9 human embryonic stem cells
Experiment: Activin A bioassay: differentiation of human embryonic stem cells to definitive endoderm, cell number and SOX17 intensity by high content analysis (96-well, four days);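 further: Raw total cell count per well from high content imaging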
Assay type: cell-based
Settings: supernatant concentration 50x, assay dilution 1:20; assay plates #008, #009
Method: Activin A is an important mediator of differentiation in a broad range of cell types. […] A bioassay that measures this differentiation in human embryonic stem cells was adapted in miniaturized format to 96-well plates for screening purposes. […] Imaging was performed using an IN Cell Analyzer 1000 (GE Healthcare) utilizing the 51008bs dichroic for cells stained with Hoechst 33342 and Alexa Fluor 488. […] Averages and standard deviations were calculated for each replicate data set. […]
Some molecules, each annotated with its measured Cell Number average.
MEASUREMENT NAME: Cell Number average

MOLECULE: ACTN27: activin A variant peptide, SEQ ID 28 (protein) GLECDGKVNLCCKKQLFVSFKDIGWNDWIIAPSGYHANHCDGKCPSHIAGTSGSSLSFHSTVINHYRMRGHSPFANRGACCIPTKLRPMSMLYYDDGQNIIKKDIQNMIVEECGCS
MEASUREMENT NAME: Cell Number average
VALUE MEASURED: 6857
//
MOLECULE: ACTN88: activin A variant peptide, SEQ ID 89 (protein) GLECDGKVNICCKKQSFGQTKDIGWNDWIIAPSGYHGGGCSGECPSHIAGTSGSSLSFHSTVINHYRMRGHSPWANLKSCCSPTKLRPMSMLYYDDGQNIIKKDIQNMVVEECGCT
MEASUREMENT NAME: Cell Number average
VALUE MEASURED: 15317
//
MOLECULE: ACTN70: activin A variant peptide, SEQ ID 71 (protein) GLECDGKVNICCKKQLFGQAKDIGWNDWIIAPSGYHGGGCSGECPSHIAGTSGSSLSFHSTVINHYRMRGHSPVANLKSCCSPTKLRPMSMLYYDDGQNIIKKDIQGMVVEECGCT
MEASUREMENT NAME: Cell Number average
VALUE MEASURED: 16071
